From: patent US11981661B2

- TARGET_OR_SYSTEM: MAGL (Homo sapiens, UniProt Q99685)
ASSAY_METRIC: pIC50
One number for each entry, as −log10 of the molar value.

Recorded pIC50, per entry:
>  <MOLECULE>
O=C1N[C@H](CCC(=O)N2CC(c3cnc(N4CCC(C(F)(F)F)C4)nc3)C2)CO1 (single isomer, unassigned) [Example 208]

>  <pIC50>
6.86

$$$$
>  <MOLECULE>
O=C1N[C@H](CCC(=O)N2CCC(CNS(=O)(=O)c3ccc(C(F)(F)F)cc3)CC2)CO1 [Example 158]

>  <pIC50>
6.24

$$$$

Report pIC50 for every entry below.
1. O=C(CCCc1cnn[nH]1)N1CC(c2ccc(Oc3ccc(OC(F)(F)F)cc3)nc2)C1 [Example 42]
2. O=C1N[C@@H](CCC(=O)N2CC(c3ccc(C4(C(F)(F)F)CC4)cc3)C2)CO1 [Example 21]
3. O=C1N[C@H](CCC(=O)N2CC(c3ccc(N4CC(C(F)(F)F)C4)nc3)C2)CO1 [Example 161]
4. O=C1N[C@H](CCC(=O)N2CC(c3cnc(N4CC5(C4)CC(F)(F)C5)cn3)C2)CO1 [Example 139]

6.66
6.60
7.19
6.91

Give pIC50 (MAGL (Homo sapiens, UniProt Q99685)) of the following molecule: CS(=O)(=O)c1ccc(-c2cnc(C3CN(C(=O)CC[C@@H]4COC(=O)N4)C3)nc2)c(Cl)c1 [Example 122] 6.42

* * *

Target chain: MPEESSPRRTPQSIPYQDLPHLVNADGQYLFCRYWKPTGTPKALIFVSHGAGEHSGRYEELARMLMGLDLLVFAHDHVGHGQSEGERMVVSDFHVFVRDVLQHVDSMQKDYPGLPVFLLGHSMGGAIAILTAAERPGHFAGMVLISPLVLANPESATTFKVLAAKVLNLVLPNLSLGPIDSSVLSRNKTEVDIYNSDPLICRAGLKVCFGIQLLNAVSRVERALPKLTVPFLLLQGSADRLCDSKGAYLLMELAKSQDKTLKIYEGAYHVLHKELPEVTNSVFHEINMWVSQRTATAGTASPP
Assignment: determine reported log10 IC50 for the given compounds.
Note the log scale: values are log10 of IC50 expressed in nM.

Below, each entry is followed by its recorded log10 IC50 result.
>  <COMPOUND>
Cc1ncccc1Oc1ccc(C2CN(C(=O)CC[C@@H]3COC(=O)N3)C2)cc1

>  <log10 IC50>
1.52

$$$$
>  <COMPOUND>
CC(C)(C)c1ccc(C2CN(C(=O)CCC3CCC(=O)N3)C2)cc1 (single isomer, unassigned; (+))

>  <log10 IC50>
0.70

$$$$

Go through the list and state log10 IC50 for each entry.
1. CS(=O)(=O)c1cccc(CN2CCC3(CC2)CN(C(=O)CC[C@@H]2COC(=O)N2)C3)c1
2. CN(Cc1ccc(C(F)(F)F)cc1F)C1CN(C(=O)CC[C@@H]2COC(=O)N2)C1
3. O=C1CSC[C@H](CCC(=O)N2CC(OCc3ccc(C(F)(F)F)cc3F)C2)N1
4. O=C1N[C@@H](COC(=O)N2CC3(CC(Cc4ccc(F)cc4F)C3)C2)CO1
5. O=C1N[C@H](CCC(=O)N2CC(c3cnc(C4CC5(CCC5)C4)cn3)C2)CO1
6. O=C1COCC(CCC(=O)N2CC(OCc3ccc(C(F)(F)F)cc3F)C2)N1 (single isomer, unassigned; (+))

2.90
2.03
3.11
0.30
1.08
2.46
